System: COLO 205 colon
Test: NCI tumour cell line growth inhibition, 48 h
We begin with a simple list: items and their reported GI50.
QUANTITY NAME: GI50

Clc1ccc(-c2nn3ncccc3c2-c2ccnc(Nc3ccccc3)n2)cc1
> 18.7 µM
C#CCNC(=O)CC[C@]1(C)[C@H]2CC[C@@H]3[C@@H]([C@@](C)(O)CCC=C(C)C)CC[C@@]3(C)[C@]2(C)CC[C@H]1C(=C)C
31.9 µM
C=C(C)[C@@H]1CCC2=C[C@@H](OC2=O)[C@@H](C(=C)C)C(=O)/C=C(/C)C(=O)C1
26.3 µM
Cc1nc(/N=C(\N)NC(=O)Nc2ccccc2Cl)sc1C
0.474 µM
CCOC(=O)C1=C(C)NC2SC(=O)/C(=C\c3ccccc3)N2C1c1ccccc1 (centres undefined)
> 100 µM
COc1ccc(/C=C/c2cc(N3CCOCC3)c3cc(F)c(F)cc3n2)cc1OC
0.558 µM
NCC1OC(OC2C(CO)OC(OC3C(O)C(N)CC(N)C3OC3OC(CO)C(O)C(O)C3N)C2O)C(N)C(O)C1O (centres undefined)
> 50 µg/mL
OC(COc1cccc2ccccc12)CN1CCN(c2ccccc2)CC1 (centres undefined)
16.4 µM
N#Cc1c(NC(=O)CN2CCOCC2)sc2c1CCCC2
> 25 µM
